Data provenance: patent US7127357

# Tgt: T1, isolated PPIase domain of human Pin1 (human, UniProt Q13526 50-163)
# T1 construct: range 50-163; also called Pin1 PPIase domain
# Assay: fluorescence anisotropy, rhodamine-labeled peptide
Non-standard residues stand in square brackets, D forms with d. No end group written: not given here. pT = C[C@@H](OP(=O)(O)O)[C@H](N)C(=O)O; pS = N[C@@H](COP(=O)(O)O)C(=O)O
Outcome Measure: binding result

PPG[pS]PP (also: tetramethylrhodamine label on an amine, Six-residue peptide derived from human Myt1) [PPGpSPP (Myt1-S416), rhodamine-labeled] :: no binding
PPA[pT]PP (also: tetramethylrhodamine label on an amine, Six-residue peptide derived from human Myt1) [PPApTPP (Myt1-T412), rhodamine-labeled] :: no binding
STS[pT]PR (also: tetramethylrhodamine label on an amine, Six-residue peptide derived from human Myt1) [STSpTPR (Myt1-T455), rhodamine-labeled] :: no binding
VPR[pT]PV (also: tetramethylrhodamine label on an amine, Six-residue peptide derived from human Cdc25c) [VPRpTPV (Cdc25c-T48), rhodamine-labeled] :: no binding
